- Test system: PC-3
- protocol: Antiproliferative sulforhodamine B assay, PC-3
- Assay type: cell-based
- assay.setup: Homo sapiens; PC-3, SRB, 48 h
So I've got a bunch of compounds here, and I need their IC50 values.

Known results for compounds:
1) C=CC(C)(C)c1cc(C2COc3cc(O)ccc3C2)c(O)c(O)c1OC (stereo not shown) :: > 100 µM
2) CC(C)=CCc1c(O)ccc(C(=O)/C=C/c2ccccc2)c1O :: > 100 µM

Hi! Can you tell me IC50 for each of these compounds?
1. CC(C)=CCc1c(O)c(C(=O)/C=C/c2ccccc2)cc2c1OC(C)(C)C=C2
2. CC(C)=CCc1cc(C(=O)/C=C/c2ccccc2)c(O)c(CC=C(C)C)c1O

1. > 100 µM
2. > 100 µM

----------
- protocol: Cytotoxicity MTT assay, PC-3 prostate adenocarcinoma
- Type: cell-based, human
- assay.setup: human, MDCK normal cells versus PC-3 prostate adenocarcinoma cells; CC50 MDCK normal cells / PC-3; read-out: Selectivity index (SI) of cytotoxic activity
Kindly state selectivity ratio at 72 h for each of the entries shown.
Answers are plain numbers.

1) CC(C)=CCc1cc(C(=O)/C=C/c2ccccc2)c(O)c(CC=C(C)C)c1O [Compound 2, spinochalcone A] :: 9.4
2) C=CC(C)(C)c1cc(C2COc3cc(O)ccc3C2)c(O)c(O)c1OC (stereo not shown) [Compound 4, secundiflorol G] :: 1.8
3) CC(=O)O[C@@]12CO[C@@H]1C[C@H](O)[C@@]1(C)C(=O)[C@H](O)C3=C(C)[C@@H](OC(=O)[C@H](O)[C@@H](NC(=O)OC(C)(C)C)c4ccccc4)C[C@@](O)([C@@H](OC(=O)c4ccccc4)[C@H]21)C3(C)C [Docetaxel, reference compound] :: 14

Item CC(C)=CCc1c(O)ccc(C(=O)/C=C/c2ccccc2)c1O [Compound 3, isocordoin] has what recorded selectivity ratio at 72 h? 0.23

----------
Assign selectivity ratio at 72 h to each entry below.
- protocol: Cytotoxicity MTT assay, SiHa cervix squamous carcinoma
- Assay type: cell-based, human
- assay.setup: human; CC50 MDCK normal cells / SiHa; read-out: Selectivity index (SI) of cytotoxic activity

1) C=CC(C)(C)c1cc(C2COc3cc(O)ccc3C2)c(O)c(O)c1OC (centres unmarked) :: 2

Pending molecule:
Quick check: selectivity ratio at 72 h of CC(=O)O[C@@]12CO[C@@H]1C[C@H](O)[C@@]1(C)C(=O)[C@H](O)C3=C(C)[C@@H](OC(=O)[C@H](O)[C@@H](NC(=O)OC(C)(C)C)c4ccccc4)C[C@@](O)([C@@H](OC(=O)c4ccccc4)[C@H]21)C3(C)C [Docetaxel, reference compound] ? 6.3

----------
- System: KB
- protocol: Antiproliferative sulforhodamine B assay, KB
- Type: cell-based, human
- assay.setup: Homo sapiens; KB, SRB, 48 h
Exercise: state measured IC50 for each of the compounds provided.

1. CC(C)=CCc1c(O)c(C(=O)/C=C/c2ccccc2)cc2c1OC(C)(C)C=C2 [Compound 1, spinochalcone C] :: > 100 µM
2. C=CC(C)(C)c1cc(C2COc3cc(O)ccc3C2)c(O)c(O)c1OC (stereo not drawn) [Compound 4, secundiflorol G] :: > 100 µM

# input for lookup
For CC(C)=CCc1c(O)ccc(C(=O)/C=C/c2ccccc2)c1O [Compound 3, isocordoin] , what is its reported IC50? > 100 µM

----------
For each of the compounds below, state its selectivity ratio at 72 h.
- protocol: Cytotoxicity MTT assay, DU-145 prostate carcinoma
- Type: cell-based, human
- assay.setup: human, MDCK normal cells versus DU-145 prostate carcinoma cells; CC50 MDCK normal cells / DU-145; read-out: Selectivity index (SI) of cytotoxic activity

1. CC(C)=CCc1cc(C(=O)/C=C/c2ccccc2)c(O)c(CC=C(C)C)c1O :: 15
2. CC(C)=CCc1c(O)ccc(C(=O)/C=C/c2ccccc2)c1O :: 0.6
3. CC(=O)O[C@@]12CO[C@@H]1C[C@H](O)[C@@]1(C)C(=O)[C@H](O)C3=C(C)[C@@H](OC(=O)[C@H](O)[C@@H](NC(=O)OC(C)(C)C)c4ccccc4)C[C@@](O)([C@@H](OC(=O)c4ccccc4)[C@H]21)C3(C)C [Docetaxel, reference compound] :: 140

Next up:
So what does the record say about selectivity ratio at 72 h for C=CC(C)(C)c1cc(C2COc3cc(O)ccc3C2)c(O)c(O)c1OC (stereo not shown) ? 1.3

----------
- protocol: Cytotoxicity MTT assay, KB nasopharynx carcinoma
- Format: cell-based, human
- assay.setup: human, MDCK normal cells versus KB nasopharynx carcinoma cells; CC50 MDCK normal cells / KB; read-out: Selectivity index (SI) of cytotoxic activity
Assignment: determine reported selectivity ratio at 72 h for the given compounds.
Numbers only.

Worked examples follow.
1. CC(C)=CCc1c(O)ccc(C(=O)/C=C/c2ccccc2)c1O [Compound 3, isocordoin] :: 0.5
2. C=CC(C)(C)c1cc(C2COc3cc(O)ccc3C2)c(O)c(O)c1OC (stereo not drawn) [Compound 4, secundiflorol G] :: 5.5

Requested read-out: selectivity ratio at 72 h. Entry: CC(=O)O[C@@]12CO[C@@H]1C[C@H](O)[C@@]1(C)C(=O)[C@H](O)C3=C(C)[C@@H](OC(=O)[C@H](O)[C@@H](NC(=O)OC(C)(C)C)c4ccccc4)C[C@@](O)([C@@H](OC(=O)c4ccccc4)[C@H]21)C3(C)C [Docetaxel, reference compound] 4.6

----------
- protocol: Cytotoxicity MTT assay, MDCK normal cell line
- Assay type: cell-based
- assay.setup: dog, MDCK cells (normal cell line), read-out: Cytotoxic activity CC50
quantity.name: CC50 at 72 h

Which value of CC50 at 72 h has been reported for CC(C)=CCc1c(O)c(C(=O)/C=C/c2ccccc2)cc2c1OC(C)(C)C=C2 in the records? > 100 µg/mL

----------
- System: SiHa
- protocol: Antiproliferative sulforhodamine B assay, SiHa
- Format: cell-based, human
- assay.setup: Homo sapiens; SiHa, SRB, 48 h
pIC50: −log10 of the molar value.
For each entry below, report its pIC50 value.

1. CC(C)=CCc1c(O)c(C(=O)/C=C/c2ccccc2)cc2c1OC(C)(C)C=C2 [Compound 1, spinochalcone C] :: < 4.00
2. CC(C)=CCc1c(O)ccc(C(=O)/C=C/c2ccccc2)c1O [Compound 3, isocordoin] :: < 4.00

Pending molecule:
For CC(C)=CCc1cc(C(=O)/C=C/c2ccccc2)c(O)c(CC=C(C)C)c1O [Compound 2, spinochalcone A] , what is its reported pIC50? < 4.00

----------
- System: MDCK
- protocol: Antiproliferative sulforhodamine B assay, MDCK normal cell line
- Format: cell-based
- assay.setup: Canis lupus familiaris, SRB, 48 h
pIC50: −log10 of the molar value.
quantity.name: pIC50

Test system MDCK; read-out pIC50; what value for CC(C)=CCc1c(O)c(C(=O)/C=C/c2ccccc2)cc2c1OC(C)(C)C=C2 [Compound 1, spinochalcone C] ? < 4.00
